system.tested: T1, human stem cell factor isoform SCF248 (hSCF248) (human, UniProt P21583 26-273)
T1 construct: also called soluble SCF
assay.explanation: binding score on Sl/Sl4 hSCF248 cells
measure.name: binding result

binder: humanized 5H10 VH4/VK2 (antibody, human IgG4, V domains shown, Only variable domains are tied to the name; Humanized from the chimeric antibody, which has a human IgG4 backbone and a kappa light chain) VH: QVQLVQSGAEVKKPGSSVKVSCKSSGYAFSSYWMNWVRQRPGQGLEWIGQIYPGDGDTHYNGKFKGRVTITADKSTSTAYMELSSLRSEDTAVYFCSSSNWVGSYWGQGTLVTVSS VL: DVVMTQSPLSLPVTLGQPASISCKSSQSLLESDGKTYLNWLQQRPGQSPRRLIYLVSRLDSGVPDRFTGSGSGTDFTLKISRVEAEDVGVYYCWQGTHLPQTFGGGTKVEIK
measure.name: binding result
test.value: binds

binder: humanized 5H10 VH1/VK3 (antibody, human IgG4, V domains shown, Only variable domains are tied to the name; Humanized from the chimeric antibody, which has a human IgG4 backbone and a kappa light chain) VH: QVQLVQSGAELKKPGSSVKISCKSSGYAFSSYWMNWVKQRPGQGLEWIGQIYPGDGDTHYNGKFKGKATLTADKSTSTAYMELSSLTSEDSAVYFCSSSNWVGSYWGQGTLVTVSS VL: DVVMTQSPLSLPVTLGQPASISCKSSQSLLESDGKTYLNWLQQRPGQSPRRLIYLVSRLDSGVPDRFSGSGSGTDFTLKISRVEAEDVGVYYCWQGTHLPQTFGGGTKVEIK
measure.name: binding result
test.value: binds
